- Test system: field corn (Zea mays L., var. Dekalb 535, CORN)
- Method: Post-emerge test, crop safety
- Type: in vivo
- Condition: post-emerge, 250 g ai/ha, 14 days after application, rating scale 0-100
Readout label: phytotoxicity rating CORN

1) COc1c(Cl)cc(F)c(-n2c(=O)cc(C(F)(F)F)n(C)c2=O)c1NC(=O)COC(C)=O; 20
2) COc1c(Cl)cc(F)c(-n2c(=O)cc(C(F)(F)F)n(C)c2=O)c1NC(=O)c1ccc(C#N)cc1; 95
3) COc1c(Cl)cc(F)c(-n2c(=O)cc(C(F)(F)F)n(C)c2=O)c1NC(=O)c1ccc(F)cc1F; 60
4) COc1c(Cl)cc(F)c(-n2c(=O)cc(C(F)(F)F)n(C)c2=O)c1NC(=O)c1ccc2ccccc2c1; 15
5) COc1c(Cl)cc(F)c(-n2c(=O)cc(C(F)(F)F)n(C)c2=O)c1NC(=O)c1cccc(Cl)c1; 80
6) COc1c(Cl)cc(F)c(-n2c(=O)cc(C(F)(F)F)n(C)c2=O)c1NC(=O)c1ccc(Cl)cc1Cl; 90
7) COc1c(Cl)cc(F)c(-n2c(=O)cc(C(F)(F)F)n(C)c2=O)c1NC(=O)C=Cc1ccccc1Cl; 25
8) COc1c(Cl)cc(F)c(-n2c(=O)cc(C(F)(F)F)n(C)c2=O)c1NC(=O)c1cccnc1; 90
9) COc1c(Cl)cc(F)c(-n2c(=O)cc(C(F)(F)F)n(C)c2=O)c1NC(=O)c1ccc2c(c1)OCO2; 50
10) COc1c(Cl)cc(F)c(-n2c(=O)cc(C(F)(F)F)n(C)c2=O)c1NC(=O)c1ccccc1F; 70

###

- Tested on: field corn (Zea mays L., var. Dekalb 535, CORN)
- Method: Pre-emerge test, crop safety
- Assay type: in vivo
- Condition: pre-emerge, 250 g ai/ha, 14 days after application, rating scale 0-100
- Procedure: A standard greenhouse herbicide activity screening system was used to evaluate the herbicidal efficacy and crop safety of these test compounds. […] At 14 days after application of the test materials, phytotoxicity ratings were recorded. […]
The following compounds are listed with their measured phytotoxicity rating CORN values.
Readout label: phytotoxicity rating CORN

1) COc1c(Cl)cc(F)c(-n2c(=O)cc(C(F)(F)F)n(C)c2=O)c1NN=CC1CC1 [Compound 15-11]; 100
2) C=CC=NNc1c(OC)c(Cl)cc(F)c1-n1c(=O)cc(C(F)(F)F)n(C)c1=O [15-10]; 100
3) COc1c(Cl)cc(F)c(-n2c(=O)cc(C(F)(F)F)n(C)c2=O)c1NN=CC(C)c1ccccc1 (stereo not shown) [15-17]; 95
4) CCOC(=O)C(Cl)Cc1c(C)c(Cl)cc(F)c1-n1c(=O)cc(C(F)(F)F)n(C)c1=O (stereo not shown) [14-54]; 0
5) COc1c(Cl)cc(F)c(-n2c(=O)cc(C(F)(F)F)n(C)c2=O)c1NN=CCc1ccccc1 [15-15]; 100
6) COc1c(Cl)cc(F)c(-n2c(=O)cc(C(F)(F)F)n(C)c2=O)c1NNC(=O)Oc1ccccc1 [15-7]; 100
7) COc1c(Cl)cc(F)c(-n2c(=O)cc(C(F)(F)F)n(C)c2=O)c1NN=CCCSC [15-14]; 99

###

- System: field corn (Zea mays L., var. Dekalb 535, CORN)
- Method: Post-emerge test, crop safety
- Assay type: in vivo
- Condition: 63 g ai/ha; phytotoxicity rating 0-100 (0 no damage, 100 complete death), 14 days after application
Label 1 for high-side Post-emerge Herbicidal Activity CORN (crop damage) (at or above 5) and 0 for low-side Post-emerge Herbicidal Activity CORN (crop damage) (below it).

1. COc1c(Cl)cc(F)c(-n2c(=O)cc(C(F)(F)F)n(C)c2=O)c1NC(=O)C1CCCCC1; 0
2. COc1c(Cl)cc(F)c(-n2c(=O)cc(C(F)(F)F)n(C)c2=O)c1NC(=O)CC#N; 0
3. CCc1ccc(C(=O)Nc2c(OCC#N)c(Cl)cc(F)c2-n2c(=O)cc(C(F)(F)F)n(C)c2=O)cc1; 1
4. C=CC(=O)N(C(=O)C=C)c1c(OC)c(Cl)cc(F)c1-n1c(=O)cc(C(F)(F)F)n(C)c1=O; 0
5. COc1c(Cl)cc(F)c(-n2c(=O)cc(C(F)(F)F)n(C)c2=O)c1N=CN(C)C; 0
6. COc1c(Cl)cc(F)c(-n2c(=O)c([N+](=O)[O-])c(C(F)(F)F)n(C)c2=O)c1[N+](=O)[O-]; 1
7. CCCc1ccc(C(=O)N(C(=O)c2ccc(CCC)cc2)c2c(OC)c(Cl)cc(F)c2-n2c(=O)cc(C(F)(F)F)n(C)c2=O)cc1; 1
8. Cc1c(Cl)cc(F)c(-n2c(=O)cc(C(F)(F)F)n(C)c2=O)c1N; 1
9. COc1c(Cl)cc(F)c(-n2c(=O)cc(C(F)(F)F)n(C)c2=O)c1N1CCCC1; 0
10. CCOC(=O)C(C)Oc1c(Cl)cc(F)c(-n2c(=O)cc(C(F)(F)F)n(C)c2=O)c1N (stereo not shown); 0
11. COc1c(Cl)cc(F)c(-n2c(=O)cc(C(F)(F)F)n(C)c2=O)c1N(C(=O)C1CC1)C(=O)C1CC1; 0
12. C=C(C)C(=O)N(C(=O)C(=C)C)c1c(OC)c(Cl)cc(F)c1-n1c(=O)cc(C(F)(F)F)n(C)c1=O; 0
13. Cn1c(C(F)(F)F)cc(=O)n(-c2c(N)cc(OC(F)F)cc2F)c1=O; 1
14. COc1c(Cl)cc(F)c(-n2c(=O)c(NC(=O)C(F)(F)F)c(C(F)(F)F)n(C)c2=O)c1NC(=O)C(F)(F)F; 0
15. COc1c(Cl)cc(F)c(-n2c(=O)cc(C(F)(F)F)n(C)c2=O)c1NC(C)=O; 1
16. COc1c(Cl)cc(F)c(-n2c(=O)cc(C(F)(F)F)n(C)c2=O)c1NC(=O)c1ccc(C)c(C)c1; 1
